# test_target: Alexa647-CAP (CAP-(Cys17;Ser178), catabolite activator protein) (Escherichia coli, UniProt P0ACJ8 1-210, H18C;C179S)
# assay_info: single-molecule fluorescence (SPIN-Seq library); 0.2 mM cAMP, 10 mM Mg2+; 40 mM Tris pH 8, 100 mM KCl, 10 mM MgCl2, 5% glycerol, 0.2 mM cAMP, 1 mM TROLOX, glucose oxidase/catalase; 1.25 nM (pure) or 2.5 nM (library) Alexa647-CAP; temperature not stated
# condition_notes: protein: recombinant; tags: His6; Alexa647 maleimide (40% labelled); chain copies: 2; label: Cy3B at top position 11; 5' biotin on bottom strand; blunt
Measured Kd of individual entries
measurement_label: Kd (nM)

# binder, value_observed
records = [
    ("CAPcons library member CAPcons_C (consensus, top 5G) (dsDNA) DNA 1: GGCAGTGAGCTCTACGCAATAAATGTGATCTAGATCACATTTTAGGCAC DNA 2: GTGCCTAAAATGTGATCTAGATCACATTTATTGCGTAGAGCTCACTGCC", 10.6),
    ("CAPcons library member CAPcons_A (top 5T; table letter taken as bottom-strand base) (dsDNA) DNA 1: GGCAGTGAGCTCTACGCAATAAATTTGATCTAGATCACATTTTAGGCAC DNA 2: GTGCCTAAAATGTGATCTAGATCAAATTTATTGCGTAGAGCTCACTGCC", 29.1),
    ("CAPcons library member CAPcons_T (top 5A; table letter taken as bottom-strand base) (dsDNA) DNA 1: GGCAGTGAGCTCTACGCAATAAATATGATCTAGATCACATTTTAGGCAC DNA 2: GTGCCTAAAATGTGATCTAGATCATATTTATTGCGTAGAGCTCACTGCC", 24.4),
    ("CAPcons library member CAPcons_G (top 5C) (dsDNA) DNA 1: GGCAGTGAGCTCTACGCAATAAATCTGATCTAGATCACATTTTAGGCAC DNA 2: GTGCCTAAAATGTGATCTAGATCAGATTTATTGCGTAGAGCTCACTGCC", 20.1),
]
